target: OCTN2 (organic cation/carnitine transporter 2) (Rattus norvegicus); assay: TP_TRANSPORTER: inhibition of Carnitine uptake (Carnitine: 0.025 uM, Betaine: 500 uM) in OCTN2-expressing HRPE cells; format: functional, cell-based; design: scale not given: the % may be the effect or the level left; conditions: human, HRPE cells expressing OCTN2, probe carnitine (0.025 uM); read-out: Activity
Sequence (O70594 whole entry): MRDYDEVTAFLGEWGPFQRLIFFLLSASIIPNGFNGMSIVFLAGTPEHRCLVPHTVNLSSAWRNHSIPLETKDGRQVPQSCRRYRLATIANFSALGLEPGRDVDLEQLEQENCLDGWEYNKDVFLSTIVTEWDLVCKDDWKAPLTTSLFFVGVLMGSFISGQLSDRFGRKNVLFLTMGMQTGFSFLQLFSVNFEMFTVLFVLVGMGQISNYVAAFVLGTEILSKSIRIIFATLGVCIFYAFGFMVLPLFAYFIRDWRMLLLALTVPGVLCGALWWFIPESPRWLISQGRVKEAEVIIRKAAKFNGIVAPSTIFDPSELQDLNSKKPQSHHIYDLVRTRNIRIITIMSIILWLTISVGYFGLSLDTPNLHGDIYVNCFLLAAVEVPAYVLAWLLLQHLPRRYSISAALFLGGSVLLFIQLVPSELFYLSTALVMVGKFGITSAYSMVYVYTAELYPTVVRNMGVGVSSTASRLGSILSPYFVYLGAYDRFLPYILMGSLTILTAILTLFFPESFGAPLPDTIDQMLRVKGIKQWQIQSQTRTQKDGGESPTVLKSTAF

# molecule, activity at 500 µM (%)
records = [
    ("C[N+](C)(C)CC(=O)O [BETAINE]", 51),
]

----------
molecular target: OCTN2 (organic cation/carnitine transporter 2) (Rattus norvegicus); assay: TP_TRANSPORTER: inhibition of Carnitine uptake (Carnitine: 0.025 uM, MPTP: 2000 uM) in OCTN2-expressing HRPE cells; type: functional, cell-based; set-up: scale not given: the % may be the effect or the level left; details: human, HRPE cells expressing OCTN2, probe carnitine (0.025 uM); read-out: Activity
measurementLabel: activity at 2000 µM (%)

# querySmiles, dataValue
data = [
    ("CN1CC=C(c2ccccc2)CC1", 4),
]
